# assayTarget: human LPA1 (Homo sapiens, UniProt Q92633)
# Construct: the full-length cDNA for human LPA1 was obtained by PCR of the reverse transcription reaction
# Sequence (Q92633 whole entry): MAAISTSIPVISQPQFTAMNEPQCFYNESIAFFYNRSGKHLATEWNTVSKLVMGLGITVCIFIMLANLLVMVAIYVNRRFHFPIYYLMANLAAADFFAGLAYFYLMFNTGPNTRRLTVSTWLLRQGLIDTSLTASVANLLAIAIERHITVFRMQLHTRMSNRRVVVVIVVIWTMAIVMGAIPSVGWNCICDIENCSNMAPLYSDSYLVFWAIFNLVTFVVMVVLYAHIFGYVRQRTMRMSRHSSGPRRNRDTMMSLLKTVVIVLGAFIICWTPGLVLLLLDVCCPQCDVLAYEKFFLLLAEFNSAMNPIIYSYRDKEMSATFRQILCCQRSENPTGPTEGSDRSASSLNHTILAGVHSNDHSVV
# testName: LPA1 calcium flux assay
# experimentalParameters: CHO cells expressing human LPA1, stimulated with 10 nM LPA; read-out: HLPA1 Ca Flux IC50
pIC50: −log10 of the molar value.
measurementKind: pIC50

Here is how some compounds turned out for pIC50.
Cc1noc(-c2ccc(-c3ccc(C4(C(=O)O)CC4)cc3)cc2)c1Nc1ncnc2scc(C)c12; 4.30 to 6.00
Cc1noc(-c2ccc(-c3ccc(C4(C(=O)O)CC4)cc3)cc2)c1CCOCc1cccnc1; 4.30 to 6.00
Cc1noc(-c2ccc(-c3ccc(C4(C(=O)O)CC4)cc3)cc2)c1C(O)CCCc1ccccc1 (single isomer, unassigned) [Compound 1-156]; > 6.52
Cc1noc(-c2ccc(-c3ccc(C4(C(=O)O)CC4)cc3)cc2)c1NC(=O)Nc1cccc(Br)c1; > 6.52
Cc1noc(-c2ccc(-c3ccc(C4(C(=O)O)CC4)cc3)cc2)c1COC(=O)NC1CCCC1; > 6.52

Briefly, pIC50 measured for COc1cncc(Nc2c(C)noc2-c2ccc(-c3ccc(C4(C(=O)O)CC4)cc3)cc2)c1 : > 6.52

Reported pIC50 of Cc1noc(-c2ccc(-c3ccc(C4(C(=O)O)CC4)cc3)cc2)c1NC(=O)NCc1cc(C(F)(F)F)ccc1F : 4.30 to 6.00

* * *

# assayTarget: human LPA1 (Homo sapiens, UniProt Q92633)
# Construct: the full-length cDNA for human LPA1 was obtained by PCR of the reverse transcription reaction
# testName: LPA1 calcium flux assay
# experimentalParameters: CHO cells expressing human LPA1, stimulated with 10 nM LPA; read-out: HLPA1 Ca Flux IC50
pIC50: −log10 of the molar value.
Below, each of the molecules is paired with its reported pIC50 value.

Examples with their reported pIC50 follow.
CCCCOc1cccc(Nc2c(C)noc2-c2ccc(-c3ccc(C4(C(=O)O)CC4)cc3)cc2)n1; > 6.52
Cc1noc(-c2ccc(-c3ccc(C4(C(=O)O)CC4)cc3)cc2)c1Nc1ccc2ccccc2n1; > 6.52
Cc1noc(-c2ccc(-c3ccc(C4(CC(=O)O)CC4)cc3)cc2)c1CSCCc1ccccc1; > 6.52
Cc1noc(-c2ccc(-c3ccc(C4(C(=O)O)CC4)cc3)cc2)c1CN(C)CCc1ccccc1; > 6.52
Cc1noc(-c2ccc(-c3ccc(C4(CC(=O)O)CC4)cc3)cc2)c1NC(C)CCCO (stereo not shown); < 4.30

The molecule COc1ccc(CC(C)Nc2c(C)noc2-c2ccc(-c3ccc(C4(C(=O)O)CC4)cc3)cc2)cc1 (stereo not shown) showed pIC50 equal to 4.30 to 6.00

Form field pIC50, entry Cc1noc(-c2ccc(-c3ccc(C4(C(=O)O)CC4)cc3)cc2)c1C(=O)C[S+]([O-])Cc1ccccc1 (stereo not shown) : 4.30 to 6.00

* * *

# assayTarget: human LPA1 (Homo sapiens)
# Construct: the full-length cDNA for human LPA1 was obtained by PCR of the reverse transcription reaction
# testName: LPA1 calcium flux assay
# experimentalParameters: CHO cells expressing human LPA1, stimulated with 10 nM LPA; read-out: HLPA1 Ca Flux IC50
# Description: A 1.1 kb cDNA encoding the human LPA1 receptor was cloned from human lung. […] Human LPA1 or LPA3 expressing CHO cells are seeded at 20,000-45,000 cells per well in a 96-well poly-D-lysine coated plate one or two days before the assay. […] Cells are the stimulated by the addition of 10 nM LPA and intracellular Ca^2+ measured using the Flexstation 3 (Molecular Devices). IC50s are determined using Graphpad prism analysis of drug titration curves.
pIC50: −log10 of the molar value.
measurementKind: pIC50

Please review the following examples before continuing.
Cc1noc(-c2ccc(-c3ccc(CC(=O)O)cc3)cc2)c1CSCCc1ccccc1; > 6.52
Cc1noc(-c2ccc(-c3ccc(C4(C(=O)O)CC4)cc3)cc2)c1Nc1cccc(OC(C)(C)C)n1; > 6.52
Cc1noc(-c2ccc(-c3ccc(C4(C(=O)O)CC4)cc3)cc2)c1CCOCC1CC1; > 6.52
Cc1ccc2nc(NCc3c(C)noc3-c3ccc(-c4ccc(C5(C(=O)O)CC5)cc4)cc3)sc2c1; 4.30 to 6.00
Cc1noc(-c2ccc(-c3ccc(C4(C(=O)O)CC4)cc3)cc2)c1/C=C/S(=O)(=O)Cc1ccccc1; 4.30 to 6.00

Please fill in: pIC50 reported for Cc1noc(-c2ccc(-c3ccc(C4(C(=O)O)CC4)cc3)cc2)c1C(O)CCCc1ccccc1 (single isomer, unassigned) [Compound 1-155] = > 6.52

Reported pIC50 for CC(C)=CCCC(C)Nc1c(C)noc1-c1ccc(-c2ccc(C3(C(=O)O)CC3)cc2)cc1 (stereo not shown) was > 6.52

Reported pIC50 ( Cc1noc(-c2ccc(-c3ccc(C4(C(=O)O)CC4)cc3)cc2)c1COCc1ccccc1 ) = 4.30 to 6.00

Quick note, pIC50 for Cc1noc(-c2ccc(-c3ccc(C4(CC(=O)O)CC4)cc3)cc2)c1C(O)CCCc1ccccc1 (single isomer, unassigned) [Compound 1-176] landed at > 6.52

Reported pIC50 ( CC(C)=CCCC(C)Nc1c(C)noc1-c1ccc(-c2ccc(C3(CC(=O)O)CC3)cc2)cc1 (stereo not shown) ) = > 6.52

# compound Cc1noc(-c2ccc(-c3ccc(C4(C(=O)O)CC4)cc3)cc2)c1C(O)CCCc1cccnc1 (stereo not shown) ; its pIC50 = > 6.52

Recorded pIC50 (compound CC(=O)N(Cc1c(C)noc1-c1ccc(-c2ccc(C3(C(=O)O)CC3)cc2)cc1)CC(C)c1ccccc1 (stereo not shown) ): > 6.52

Record Cc1cnn(Cc2c(C)noc2-c2ccc(-c3ccc(C4(C(=O)O)CC4)cc3)cc2)c1 , field pIC50: 4.30 to 6.00

Query Cc1noc(-c2ccc(-c3ccc(CC(=O)O)cc3)cc2)c1CC(F)(F)CCc1ccccc1 yields pIC50 of > 6.52

# pIC50 of COc1ccc(CC(C)Nc2c(C)noc2-c2ccc(-c3ccccc3CC(=O)O)cc2)cc1 (stereo not shown) = 4.30 to 6.00

Briefly, pIC50 measured for Cc1noc(-c2ccc(-c3ccc(C4(C(=O)O)CC4)cc3)cc2)c1CCC(=O)N(C)Cc1ccccc1F : > 6.52

Entry under test: Cc1noc(-c2ccc(-c3ccc(C4(C(=O)O)CC4)cc3)cc2)c1NC(C)CCc1cccc(Cl)c1 (single isomer, unassigned) [Compound 1-239] . Its pIC50 was > 6.52

Notebook: Cc1noc(-c2ccc(-c3ccc(C4(C(=O)O)CC4)cc3)cc2)c1CC(=O)NC(C)c1ccccc1 (stereo not shown) , pIC50 read as > 6.52

* * *

# assayTarget: human LPA1 (Homo sapiens, UniProt Q92633)
# Construct: the full-length cDNA for human LPA1 was obtained by PCR of the reverse transcription reaction
# testName: LPA1 calcium flux assay
# experimentalParameters: CHO cells expressing human LPA1, stimulated with 10 nM LPA; read-out: HLPA1 Ca Flux IC50
pIC50: −log10 of the molar value.
measurementKind: pIC50

Use these answered entries as a reference point.
Cc1noc(-c2ccc(-c3ccc(C4(C(=O)O)CC4)cc3)cc2)c1C(O)C(=O)NCc1ccccc1 (centres unmarked); > 6.52
COc1ccc(CC(C)Nc2c(C)noc2-c2ccc(-c3ccc(C4(CC(=O)O)CC4)cc3)cc2)cc1 (centres unmarked); 4.30 to 6.00
Cc1noc(-c2ccc(-c3ccc(C4(C(=O)O)CC4)cc3)cc2)c1NC(C)CCc1ccccc1 (single isomer, unassigned) [Compound 1-220]; > 6.52

Next, consider the following molecule.
Record summary for Cc1noc(-c2ccc(-c3ccc(C4(C(=O)O)CC4)cc3)cc2)c1NC(=O)NCc1c(F)cccc1F : reported pIC50 = 6.00 to 6.52

* * *

Reported IC50 values are given for each entry in this list.
# assayTarget: human LPA1 (Homo sapiens)
# Construct: the full-length cDNA for human LPA1 was obtained by PCR of the reverse transcription reaction
# testName: LPA1 calcium flux assay
# experimentalParameters: CHO cells expressing human LPA1, stimulated with 10 nM LPA; read-out: HLPA1 Ca Flux IC50

Worked examples, 3 molecules total:
Cc1noc(-c2ccc(-c3ccc(C4(C(=O)O)CC4)cc3)cc2)c1NC(C)CSc1ccccc1 (stereo not drawn); < 0.3 µM
Cc1noc(-c2ccc(-c3ccc(C4(C(=O)O)CC4)cc3)cc2)c1/C=C/CC(C)c1ccccc1 (stereo not drawn); 1 to 50 µM
Cc1noc(-c2ccc(-c3ccc(C4(C(=O)O)CC4)cc3)cc2)c1CC(=O)N[C@H]1CCc2ccccc21; < 0.3 µM

response.value for Cc1noc(-c2ccc(-c3ccc(C4(CC(=O)O)CC4)cc3)cc2)c1C(O)CCCCc1ccccc1 (stereo not drawn) (field: IC50) = < 0.3 µM

Entry under test: Cc1noc(-c2ccc(-c3ccc(C4(C(=O)O)CC4)cc3)cc2)c1NC(=O)NS(=O)(=O)c1ccccc1 . Its IC50 was 1 to 50 µM

Source listed as patent US9624182B2.
